Data provenance is patent US20040116420A1.

Here the recorded EC90 is given for each entry.
# Test system: HSV-1
# Test Details: Antiviral activity, HSV-1 in Vero cells, plaque method
# Assay type: cell-based
# Details: Human alphaherpesvirus 1, 20 hours, 90% inhibition of plaque formation
Reported Property: EC90

smiles_structure=Cc1c(NC(=O)OC(C)(C)C)ccc2nc(N3C[C@H](OCc4ccccc4)C[C@H]3C(=O)N(C)Cc3ccccn3)oc(=O)c12 observed_result="8.8 µM"
smiles_structure=Cc1c(NC(=O)OC(C)(C)C)ccc2nc(NC(C)(C)C(=O)N(C)Cc3cccnc3)oc(=O)c12 observed_result="> 12.5 µM"
smiles_structure=Cc1c(NC(=O)c2scc(S(=O)(=O)C(C)C)c2Cl)ccc2nc(NC(C)(C)C(=O)N(C)CCc3ccccn3)oc(=O)c12 observed_result="> 12.5 µM"
smiles_structure=Cc1c(NC(=O)OC(C)(C)C)ccc2nc(NC(C)(C)C(=O)N(C)CCc3ccccn3)oc(=O)c12 observed_result="8.4 µM"
smiles_structure=Cc1c(NC(=O)OC(C)(C)C)ccc2nc(NC(C)(C)C(=O)NCc3ccncc3)oc(=O)c12 observed_result="> 25 µM"
smiles_structure=Cc1c(NC(=O)OC(C)(C)C)ccc2nc(NC3(C(=O)N(C)CCc4ccccn4)CC3)oc(=O)c12 observed_result="> 12.5 µM"
smiles_structure=Cc1c(NC(=O)c2ccccc2C(F)(F)F)ccc2nc(NC(C)(C)C(=O)N(C)CCc3ccccn3)oc(=O)c12 observed_result="> 12.5 µM"

###

# Study Target: HSV-1 protease (Human herpesvirus 1, UniProt P10210)
# Sequence (P10210 1-247): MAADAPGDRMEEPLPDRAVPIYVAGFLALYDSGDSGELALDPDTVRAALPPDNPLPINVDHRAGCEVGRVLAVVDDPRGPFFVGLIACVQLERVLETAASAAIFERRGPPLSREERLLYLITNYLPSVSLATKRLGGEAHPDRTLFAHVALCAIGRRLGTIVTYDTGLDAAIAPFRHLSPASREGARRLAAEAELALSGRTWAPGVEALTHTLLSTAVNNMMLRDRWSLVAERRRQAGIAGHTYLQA
pIC50: −log10 of the molar value.
Parameter threshold = 6. Response is YES when pIC50 meets or exceeds it, else NO.

smiles_structure=Cc1c(NC(=O)OC(C)(C)C)ccc2nc(N[C@H](C(=O)NCc3ccncc3)C(C)C)oc(=O)c12 class_name=NO
smiles_structure=COc1cc(OC)cc(C(=O)Nc2ccc3nc(NC(C)(C)C(=O)N(C)CCc4ccccn4)oc(=O)c3c2C)c1 class_name=YES
smiles_structure=Cc1c(NC(=O)OC(C)(C)C)ccc2nc(N3C[C@H](OCc4ccccc4)C[C@H]3C(=O)NCc3cccnc3)oc(=O)c12 class_name=NO
smiles_structure=Cc1c(NC(=O)OC(C)(C)C)ccc2nc(N3C[C@H](OCc4ccccc4)C[C@H]3C(=O)N(C)Cc3ccccn3)oc(=O)c12 class_name=NO

###

Documented EC90 across a set of molecules
# Test system: HSV-1
# Test Details: Antiviral activity, HSV-1 in Vero cells, plaque method
# Assay type: cell-based
# Details: Human alphaherpesvirus 1, 20 hours, 90% inhibition of plaque formation
Reported Property: EC90 (µM)

smiles_structure=Cc1c(NC(=O)OC(C)(C)C)ccc2nc(NC3(C(=O)N(C)Cc4ccncc4)CCCC3)oc(=O)c12 reading_qualifier== observed_result=11.5
smiles_structure=Cc1c(NC(=O)OC(C)(C)C)ccc2nc(N[C@@H](CC(C)C)C(=O)NCc3ccccn3)oc(=O)c12 reading_qualifier== observed_result=21.5
smiles_structure=Cc1c(NC(=O)OC(C)(C)C)ccc2nc(N[C@H](C(=O)N(C)CCc3ccccn3)C(C)C)oc(=O)c12 reading_qualifier== observed_result=6.6
smiles_structure=CCCCc1ccc(C(=O)NCCCC(=O)Nc2ccc3nc(N[C@@H](C)C(=O)N(C)CCc4ccccn4)oc(=O)c3c2C)cc1 reading_qualifier=> observed_result=12.5
